Quick list: IC50 per entry.
Molecular target: c-kit mutant D816V (Homo sapiens, UniProt P10721, D816V/DEL694-753)
Construct: residues 551-934, kinase insertion domain residues 694-753 deleted; 6x-histidine (N); made in house; host or cells: E. coli Arctic Express (DE3) RIL (Stratagene)
Sequence (P10721 with tags, fused parts or gaps DEL694-753/D816V): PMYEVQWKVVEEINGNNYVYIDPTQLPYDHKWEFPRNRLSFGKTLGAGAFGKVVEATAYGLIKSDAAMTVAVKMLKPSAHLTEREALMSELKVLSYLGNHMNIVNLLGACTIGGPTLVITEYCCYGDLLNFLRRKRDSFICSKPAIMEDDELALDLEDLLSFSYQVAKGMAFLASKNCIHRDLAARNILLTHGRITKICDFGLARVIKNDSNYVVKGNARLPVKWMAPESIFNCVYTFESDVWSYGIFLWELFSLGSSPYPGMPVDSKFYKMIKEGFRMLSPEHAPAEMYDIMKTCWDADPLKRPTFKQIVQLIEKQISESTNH
Assay: c-Kit mutant D816V biochemical assay, AlphaScreen
Conditions: c-kit D816V biochemical inhibitory activity; read-out: Biochemical activity (IC50 μM) Kit D816V
measurement_label: IC50

                                    compound  measurement_label      meas_value
 0  O=C(NCc1ccc(F)cc1)N1CCN(c2ncnc3[nH]cc(-c4ccccc4)c23)CC1               IC50    10 to 200 µM
 1  O=C(Nc1ccc(F)cc1)N1CCN(c2ncnc3ccsc23)CC1               IC50  0.0001 to 1 µM
 2  COc1cc2ncnc(-c3ccc(S(=O)(=O)Nc4ccc(Cl)cc4)cc3F)c2cc1OCCCN1CCOCC1               IC50  0.0001 to 1 µM
 3  Cc1cc2c(-c3ccc(S(=O)(=O)Nc4ccc(F)cc4)c(F)c3)ncnc2[nH]1               IC50      1 to 10 µM
 4  COc1cccc(CNC(=O)N2CC3CCC2CN3c2ncnc3cc(-c4ccc(F)cc4)sc23)c1 (centres unmarked)               IC50  0.0001 to 1 µM
 5  O=C(NC1CCCC1)N1CCN(c2ncnc3[nH]c(-c4ccc(F)cc4)cc23)CC1               IC50    10 to 200 µM
 6  Cc1nn(C)cc1-c1cc2ncnc(N3CCN(C(=O)N[C@@H](C)c4cccc(F)c4)[C@H](C)C3)c2s1               IC50  0.0001 to 1 µM
 7  O=C(NC(=O)N1CCN(c2ncnc3[nH]c(-c4ccc(F)cc4)cc23)CC1)c1ccccc1               IC50      1 to 10 µM
 8  Cn1cc(-c2cc3c(N4CCC(NS(=O)(=O)c5ccc(N6CCCC6=O)cc5)CC4)ncnc3[nH]2)cn1               IC50  0.0001 to 1 µM
 9  CCNc1ccc(-c2ncnc3[nH]c(-c4ccc(F)cc4)cc23)cn1               IC50      1 to 10 µM
10  CCOc1ccc(NC(=O)N2CCN(c3ncnc4[nH]c(-c5ccc(Cl)cc5)cc34)CC2)cc1               IC50  0.0001 to 1 µM
11  Cc1ncc(-c2cc3c(N4CCN(C(=O)Nc5ccc(OC(F)(F)F)cc5)CC4)ncnc3[nH]2)s1               IC50  0.0001 to 1 µM
12  Cc1cc2c(-c3ccc(NS(=O)(=O)c4ccc(Br)cc4)cc3)ncnc2[nH]1               IC50      1 to 10 µM
13  O=S(=O)(NC1CC1)c1cccc(-c2ncnc3[nH]c(-c4ccc(F)cc4)cc23)c1               IC50  0.0001 to 1 µM
14  Cc1n[nH]c2ncnc(-c3ccc(NS(=O)(=O)c4ccc(Cl)cc4)cc3)c12               IC50  0.0001 to 1 µM
15  C[C@@H]1CN(c2ncnc3[nH]c(-c4ccc(Cl)cc4)cc23)CCN1C(=O)N[C@H](C)c1ccc(F)cc1               IC50  0.0001 to 1 µM
16  C[C@@H]1CN(c2ncnc3[nH]c(-c4ccncc4)cc23)CCN1C(=O)Nc1ccc(F)c(Cl)c1               IC50  0.0001 to 1 µM
17  Cn1cc(-c2cc3c(N4CCN(C(=O)NCc5ccc(Cl)cc5)CC4)ncnc3[nH]2)cn1               IC50  0.0001 to 1 µM
18  COc1cccc([C@H](C)NC(=O)N2CCN(c3ncnc4[nH]c(C#CC5CC5)cc34)CC2)c1               IC50  0.0001 to 1 µM
19  Cc1ccc(S(=O)(=O)Nc2ccc(-c3ncnc4cc(C)sc34)cc2)cc1               IC50  0.0001 to 1 µM
20  COc1cc(-c2cc3c(N4CCN(C(=O)N[C@@H](C)c5cccc(Cl)c5)C(C)(C)C4)ncnc3[nH]2)ccn1               IC50  0.0001 to 1 µM
21  O=S(=O)(Nc1ccc(-c2ncnc3[nH]c(C4=CCCC4)cc23)c(F)c1)c1ccc(F)cc1               IC50  0.0001 to 1 µM
22  CCNS(=O)(=O)c1ccc(-c2ncnc3[nH]c(-c4ccc(F)cc4)cc23)cc1               IC50    10 to 200 µM
23  C[C@H](NC(=O)N1CCN(c2ncnc3[nH]c(-c4ccc(C#N)cc4)cc23)C[C@H]1C)c1ccc(Cl)cc1               IC50  0.0001 to 1 µM
24  CC(C)Oc1ccc(S(=O)(=O)NC2CCN(c3ncnc4[nH]c(-c5cnn(C)c5)cc34)CC2)cc1               IC50  0.0001 to 1 µM
25  CCCc1ccc(S(=O)(=O)NC2CC=C(c3ncnc4[nH]c(C)cc34)CC2)cc1 (centres unmarked)               IC50  0.0001 to 1 µM
26  Cc1c(-c2cc3ncnc(N4CCN(C(=O)NCc5ccc(F)cc5)CC4)c3s2)cnn1C               IC50  0.0001 to 1 µM
27  COc1cccc([C@H](C)NC(=O)N2CC3CCC(C2)N3c2ncnc3cc(-c4ccc(F)cc4)sc23)c1               IC50      1 to 10 µM
28  COc1ncc(-c2cc3c(N4CCC(NS(=O)(=O)c5ccc(OC(F)(F)F)cc5)CC4)ncnc3[nH]2)cn1               IC50    10 to 200 µM
29  COc1ccc([C@@H](C)NC(=O)N2CCN(c3ncnc4[nH]c(-c5ccc(F)cc5)cc34)C[C@H]2C)cc1               IC50      1 to 10 µM
30  C[C@H](NC(=O)N1CCN(c2ncnc3[nH]c(-c4ccc(Cl)cc4)cc23)C[C@H]1C)c1ccc(F)cc1               IC50  0.0001 to 1 µM
31  Cc1ccc2sc(S(=O)(=O)Nc3ccc(-c4ncnc5[nH]c(C)cc45)cc3)cc2c1               IC50      1 to 10 µM
